Test system: MV4-11 cells
Experiment: Cell viability
Format: cell-based, human
Conditions: Homo sapiens, MV4-11, read-out: MV4-11 EC50 (μM)

molecule | assay_system | EC50 (µM)
Cc1c(Cl)cccc1S(=O)(=O)Nc1ccc2c(c1)C(=O)N(C1CCC(=O)NC1=O)C2=O (stereo not shown) | MV4-11 cells | 0.052

----------
System: MV4-11 cells
Assay: Cell viability
Type: cell-based, human
Conditions: cellular assays of Table 2

compound | activity in cells (in words)
O=C1CCC(N2C(=O)c3ccc(NS(=O)(=O)c4ccc(OC(F)(F)F)cc4)cc3C2=O)C(=O)N1 (centres unmarked) | no activity in cells
O=C1CCC(N2C(=O)c3ccc(NS(=O)(=O)c4cccc(OC(F)(F)F)c4)cc3C2=O)C(=O)N1 (centres unmarked) | no activity in cells

Source listed as paper PMC8201443.
